Assay: anti-His antibody binders, primary screen, artefact control for SMM control protein annotation, biochemical, small-molecule microarray, 635 nm fluorescence (AID 1128);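 note: score merges feature fluorescence with signal-to-noise for each printed compound spot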
Details: anti-His Alexa647 antibody binding, higher = more signal
Lab note: anything with composite z-score at or over 0.5 counts as y; the rest go in n.

compound: CC1CC/C=C\[C@H]2OC34C=CCN(Cn5nnc6ccccc65)C(=O)[C@H]3N(CCO)C(=O)[C@@H]4C2C(=O)O1 (stereo partly specified)
label value: y
--
compound: Cn1cccc1C(O)C1C=CC2C(=O)NC(=O)C2N1Nc1ccccn1 (stereo unspecified)
label value: n
--
compound: COC(=O)[C@H](C)NC(=O)[C@@H](C)CO
label value: y

input: Reported composite z-score reaches at least 0.5 for `CCOC(=O)NN=C1C[C@@H](O)[C@@H](O)[C@@H]2[C@@H]3C(=O)N(C4CCCCC4)C(=O)[C@@H]3CC[C@H]12` ?
output: n

input: Reported composite z-score reaches at least 0.5 for `CCOC(=O)CCN1C(=O)[C@H]2[C@H]3[C@H](O)[C@H](O)CC(=NOCc4ccccc4)[C@@H]3CC[C@H]2C1=O` ?
output: n

input: Reported composite z-score reaches at least 0.5 for `C#C[C@@H]1Oc2ccccc2S(=O)(=O)N2CCC[C@H]12` ?
output: n

input: Reported composite z-score reaches at least 0.5 for `NC(=O)NCC#Cc1ccc2c(c1)[C@]1(C(=O)N2)[C@H](c2ccc(O)cc2)N2[C@H](c3ccccc3)[C@H](c3ccccc3)OC(=O)[C@H]2[C@@H]1C(=O)N1CCCCCCC1` ?
output: y

input: Reported composite z-score reaches at least 0.5 for `CC(C)=NOCc1ccc(-c2cc(-c3ccccc3)no2)cc1` ?
output: n

###

Assay: small-molecule microarray binders of probe aCHRDL2, primary screen, biochemical, biotinylated probe, 635/667 nm fluorescence (AID 1100)
Conditions: higher = more signal
observation type: composite z-score
Answers are plain numbers.

Please give composite z-score, item by item, for the list that follows.
1. Cc1ccc(S[C@]2(C(=O)O)CC(=O)N(Cc3ccccc3)[C@@H]2c2ccc(CO)cc2I)cc1
2. O=C1C[C@@H](O)[C@@H](O)[C@@H]2[C@@H]3C(=O)N(c4cccc(Oc5ccccc5)c4)C(=O)[C@@H]3CC[C@@H]12

output:
1. 0.894
2. -0.464

Please give composite z-score, item by item, for the list that follows.
1. CO[C@H]1COC(=O)[C@@H]2CCCN2C(=O)[C@@H](C)COC(=O)CC=C[C@@H]1C
2. CN1C(=O)C2C=CC(C(O)c3ccc(Br)cc3)N(N(c3ccccc3)c3ccccc3)C2C1=O (centres undefined)

output:
-0.919
1.04

###

Test: binders of probe aFSTL3 on microarray, primary screen, stem cell growth factor project, biochemical, small-molecule microarray, fluorescence 635/667 (AID 1064);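 note: measures binding of the biotinylated anti-FSTL3 antibody to printed compounds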
Conditions: higher = more signal
Lab note: anything with composite z-score at or over -0.2 counts as True; the rest go in False.

input: Reported composite z-score reaches at least -0.2 for `CO[C@H]1COC(=O)[C@H](C)NC(=O)[C@@H](C)COC(=O)CC=C[C@@H]1C` ?
output: False

input: Reported composite z-score reaches at least -0.2 for `COc1ccccc1CN1C(=O)c2ccccc2[C@@H](C(=O)NCC(F)(F)F)[C@@H]1c1ccc(CO)cc1` ?
output: False

input: Reported composite z-score reaches at least -0.2 for `COCC1=C2[C@@H](CCc3ccccc3)OB(O)C[C@@H]2n2c(=O)n(-c3ccccc3)c(=O)n2C1` ?
output: True

input: Reported composite z-score reaches at least -0.2 for `COCC(=C=CC[C@@H](O)c1ccccc1OCCO)CCO` ?
output: True

input: Reported composite z-score reaches at least -0.2 for `COC(=O)[C@@]1(Cc2ccccc2)[C@H]2c3cc(C(=O)N4CCCC4)n(Cc4ccccn4)c3C[C@H]2CN1C(=O)c1ccccc1` ?
output: True

input: Reported composite z-score reaches at least -0.2 for `C[C@H]1Cc2c(-c3ccccc3)nc3c(c2CO1)CN(CCOc1ccccc1)CC3` ?
output: False

input: Reported composite z-score reaches at least -0.2 for CN1C(=O)C2C=CC(C(O)C(c3ccccc3)c3ccccc3)N(NC(=O)OC(C)(C)C)C2C1=O (stereo not drawn) ?
output: True

###

Experiment: modulators of S6 phosphorylation in cells, primary screen, cell-based, A549, cytoblot, luminescence, serum-stimulated (AID 1158);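 note: serum-stimulated A549 lung adenocarcinoma cells; signal is phosphorylated S6 detected by cytoblot immunostaining with HRP secondary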
Conditions: A549 phospho-S6 cytoblot, 5 h, higher = more signal
observation type: z-score
One number for each entry.

smiles input: [N-]=[N+]=Nc1ccccc1C[C@@]1(C(N)=O)N=C(c2ccc(OCCCO)cc2)O[C@@H]1c1ccccc1
observation type: z-score
reported value: 1.4
--
smiles input: COC(=O)CC=C[C@@H](C)[C@@H](C=NO[C@@H](C)c1cc(-c2c(C)cc(C)cc2C)no1)OC
observation type: z-score
reported value: 2.15
--
smiles input: COc1ccc(O[C@H]2C=C[C@@H](c3ccccc3)O[C@@H]2COC(=O)N2CCCCC2)cc1
observation type: z-score
reported value: -0.428
--
smiles input: Cc1cc2c(c(=O)o1)[C@H](O)[C@H]1O[C@H]1C2=O
observation type: z-score
reported value: -0.573
--
smiles input: COC(=O)[C@@H]1CCCN1C(=O)[C@@H](C)CO
observation type: z-score
reported value: 1.4
--
smiles input: O=C1O[C@@H](c2ccccc2)[C@@H](c2ccccc2)N2[C@@H](c3ccccc3OCCO)[C@]3(C(=O)Nc4ccc(C#CCCO)cc43)[C@@H](C(=O)O)[C@H]12
observation type: z-score
reported value: 1.47
--
smiles input: O=C(NN=C1C[C@@H](O)[C@@H](O)[C@@H]2[C@@H]3C(=O)N(c4cccc(Oc5ccccc5)c4)C(=O)[C@@H]3CC[C@H]12)OCc1ccccc1
observation type: z-score
reported value: -0.738

Consider the additional molecule presented here.
input: Give its z-score value. Item: `C[C@@H]1C=CCC(=O)OC[C@H](C)C(=O)N[C@@H](C)C(=O)OC1`
output: -0.276

###

System: Noggin (protein binding on small-molecule microarray)
Assay: Noggin binders on small-molecule microarray, primary screen, biochemical, 635/667 nm fluorescence (AID 1095);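 note: score merges 667 nm feature fluorescence with signal to noise over triplicate slides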
Settings: 635 nm fluorescence, higher = more signal
Would you kindly list composite z-score for each of these compounds?
One number for each entry.

compound: Cc1ccc(S[C@]2(C(=O)O)CC(=O)N(Cc3ccccc3)[C@@H]2c2ccc(CO)cc2I)cc1
observation type: composite z-score
reported value: -0.404
//
compound: CC(=O)OC[C@H]1O[C@H](CCON=C[C@@H](C)[C@H](OCc2ccccc2)C(C)C)C=C[C@@H]1OC(C)=O
observation type: composite z-score
reported value: 0.559
//
compound: CC(C)CON=C1C[C@@H](O)[C@@H](O)[C@@H]2[C@@H]3C(=O)N(C[C@@H]4CCCO4)C(=O)[C@@H]3CC[C@H]12
observation type: composite z-score
reported value: 0.468

input: Give its composite z-score value. Item: CN1C(=O)C2C=CC(C(O)c3ccc(Br)cc3)N(N(c3ccccc3)c3ccccc3)C2C1=O (centres undefined)
output: -0.482

###

Experiment: mitochondrial membrane potential change in A549 cells, profiling panel, cell-based, JC-1 fluorescence, basal, 24 h, 100 nL (AID 1138);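 note: A549 lung adenocarcinoma cells under basal conditions with no added stimulus; test concentration not given here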
Conditions: higher = more signal
observation type: z-score
Numbers only.

molecule: O=C1C2=CC[C@H]3C(=O)N(Cc4ccc5c(c4)OCO5)C(=O)[C@H]3[C@H]2[C@H](O)[C@@H]2O[C@H]12
z-score: 0.738

molecule: CC(C)NC(=O)[C@@H]1c2ccccc2C(=O)N(CC23CC4CC(CC(C4)C2)C3)[C@H]1c1ccc(CO)cc1
z-score: 0.689

molecule: CCN1C(=O)[C@H]2[C@H]3[C@H](O)[C@H](O)CC(=NOCc4ccccc4)[C@@H]3CC[C@H]2C1=O
z-score: 1.89

molecule: O[C@@H](Cc1ccccc1)[C@H]1C2C=CCCC(c3ccccc3)=C2CN1Cc1cccc(Cl)c1 (stereo not given in full)
z-score: 2.09

molecule: CC(=O)OC[C@H]1O[C@H](CCON=C(C)CCC(=O)OC[C@H]2O[C@H](C#Cc3ccccc3)C=C[C@@H]2Oc2ccc(C)cc2)C=C[C@@H]1OC(C)=O
z-score: -0.518

Please give z-score, item by item, for the list that follows.
1. CC(C)CON=C1C[C@@H](O)[C@@H](O)[C@@H]2[C@@H]3C(=O)N([C@@H](C)c4ccccc4)C(=O)[C@@H]3CC[C@H]12
2. C[C@@H]1CC[C@H]2C(=O)O[C@H](COc3ccc(C(C)(C)C)cc3)CN2[C@H]1c1ccc(Br)cc1
3. CC(C)[C@@H](OCc1ccccc1)[C@H](C)C=NO[C@H](C)c1cn([C@H](CO)Cc2ccccc2)nn1
4. CO[C@H]1O[C@H](CO)[C@@H](OC(=O)Nc2ccc(C#N)cc2)[C@H](OC(=O)c2cc3ccccc3[nH]2)[C@H]1OC(=O)c1cc2ccccc2[nH]1
5. CC(=O)C[C@H](O)[C@@H](NC(=O)OC(C)(C)C)C(C)C
6. CCOC(=O)NN=C1C[C@@H](O)[C@@H](O)[C@@H]2[C@@H]3C(=O)N(C(C)(C)C)C(=O)[C@@H]3CC[C@@H]12
7. CN1C(=O)C2C(C1=O)C1C=C(CCCO)C2C(c2ccc(CN3CCCC3)cc2)N1C (stereo not given)
8. CO[C@@H]1COC(=O)CCC[C@@H](C)[C@H](OC)COC(=O)[C@H](Cc2ccccc2)NC(=O)CC=C[C@H]1C

output:
1.24
1.87
0.506
0.71
-0.824
0.0179
-1.01
-0.972

Please give z-score, item by item, for the list that follows.
1. CCCNC(=O)[C@@H]1c2ccccc2C(=O)N(c2ccc(C)cn2)[C@H]1c1ccc(CO)cc1
2. C=CCC(OC(C)=O)[C@@H]1[C@@H](N(Cc2cc3ccccc3o2)C(=O)Cc2ccc(F)cc2)c2cc(OCCCO)ccc2N1C(=O)Cc1ccc(OC)cc1 (stereo not given in full)

output:
[-0.307, 0.919]
